Reported pEC50 values for a set of compounds
molecular target: Broad substrate specificity ATP-binding cassette transporter ABCG2 (Homo sapiens, UniProt Q9UNQ0); assay: TP_TRANSPORTER: ATP hydrolysis in membrane vesicle from BCRP-expressing Sf9 cells; conditions: read-out: Kact
pEC50: −log10 of the molar value.

[
  {
    "smiles.repr": "COc1cccc2c1C(=O)c1c(O)c3c(c(O)c1C2=O)C[C@@](O)(C(C)=O)C[C@@H]3O[C@H]1C[C@H](N)[C@H](O)[C@H](C)O1",
    "pEC50": 5.60
  },
  {
    "smiles.repr": "COC(=O)c1ccccc1-c1c2ccc(=N)cc-2oc2cc(N)ccc12",
    "pEC50": 5.35
  },
  {
    "smiles.repr": "COc1cc2nc(N3CCN(C(=O)c4ccco4)CC3)nc(N)c2cc1OC",
    "pEC50": 6.00
  },
  {
    "smiles.repr": "COc1cccc2c1C(=O)c1c(O)c3c(c(O)c1C2=O)C[C@@](O)(C(=O)CO)C[C@@H]3O[C@H]1C[C@H](N)[C@H](O)[C@H](C)O1",
    "pEC50": 5.30
  },
  {
    "smiles.repr": "O=C1c2c(O)ccc(O)c2C(=O)c2c(NCCNCCO)ccc(NCCNCCO)c21",
    "pEC50": 5.15
  }
]

###

Target: Broad substrate specificity ATP-binding cassette transporter ABCG2 (Homo sapiens)
Sequence (Q9UNQ0 whole entry): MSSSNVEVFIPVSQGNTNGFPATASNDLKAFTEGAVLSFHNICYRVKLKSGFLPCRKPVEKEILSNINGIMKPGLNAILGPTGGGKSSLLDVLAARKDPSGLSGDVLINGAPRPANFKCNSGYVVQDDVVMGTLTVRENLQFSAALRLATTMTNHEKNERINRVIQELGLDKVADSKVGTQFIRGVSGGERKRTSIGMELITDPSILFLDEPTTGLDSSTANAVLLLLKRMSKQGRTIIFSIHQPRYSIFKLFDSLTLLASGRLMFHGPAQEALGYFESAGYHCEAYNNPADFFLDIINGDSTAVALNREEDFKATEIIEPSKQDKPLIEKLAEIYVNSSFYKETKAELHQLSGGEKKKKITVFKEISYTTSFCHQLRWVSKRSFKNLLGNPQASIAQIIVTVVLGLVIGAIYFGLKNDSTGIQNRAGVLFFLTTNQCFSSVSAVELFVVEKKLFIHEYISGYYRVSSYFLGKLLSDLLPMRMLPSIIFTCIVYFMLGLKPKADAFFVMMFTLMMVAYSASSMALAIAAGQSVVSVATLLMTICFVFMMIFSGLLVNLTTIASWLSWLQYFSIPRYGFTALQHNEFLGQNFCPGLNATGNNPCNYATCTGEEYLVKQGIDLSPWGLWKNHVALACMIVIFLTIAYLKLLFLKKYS
Experiment: TP_TRANSPORTER: inhibition of ATPase in membrane vesicle from BCRP-expressing Sf9 cells
Format: functional, cell membranes

[
  {
    "smiles.repr": "COc1ccc2c3c([nH]c2c1)[C@H](C=C(C)C)N1C(=O)[C@@H]2CCCN2C(=O)[C@@H]1C3",
    "Ki": "1300 nM"
  }
]
